- system: T1, human ROR1 (full-length, on the cell surface) (human, UniProt Q01973 30-937)
- T1 construct: whole, on cells; the tumour cell lines carry their own ROR1; also called Ba/F3-ROR1 cells; Jeko-1
- T1 sequence (Q01973 30-937): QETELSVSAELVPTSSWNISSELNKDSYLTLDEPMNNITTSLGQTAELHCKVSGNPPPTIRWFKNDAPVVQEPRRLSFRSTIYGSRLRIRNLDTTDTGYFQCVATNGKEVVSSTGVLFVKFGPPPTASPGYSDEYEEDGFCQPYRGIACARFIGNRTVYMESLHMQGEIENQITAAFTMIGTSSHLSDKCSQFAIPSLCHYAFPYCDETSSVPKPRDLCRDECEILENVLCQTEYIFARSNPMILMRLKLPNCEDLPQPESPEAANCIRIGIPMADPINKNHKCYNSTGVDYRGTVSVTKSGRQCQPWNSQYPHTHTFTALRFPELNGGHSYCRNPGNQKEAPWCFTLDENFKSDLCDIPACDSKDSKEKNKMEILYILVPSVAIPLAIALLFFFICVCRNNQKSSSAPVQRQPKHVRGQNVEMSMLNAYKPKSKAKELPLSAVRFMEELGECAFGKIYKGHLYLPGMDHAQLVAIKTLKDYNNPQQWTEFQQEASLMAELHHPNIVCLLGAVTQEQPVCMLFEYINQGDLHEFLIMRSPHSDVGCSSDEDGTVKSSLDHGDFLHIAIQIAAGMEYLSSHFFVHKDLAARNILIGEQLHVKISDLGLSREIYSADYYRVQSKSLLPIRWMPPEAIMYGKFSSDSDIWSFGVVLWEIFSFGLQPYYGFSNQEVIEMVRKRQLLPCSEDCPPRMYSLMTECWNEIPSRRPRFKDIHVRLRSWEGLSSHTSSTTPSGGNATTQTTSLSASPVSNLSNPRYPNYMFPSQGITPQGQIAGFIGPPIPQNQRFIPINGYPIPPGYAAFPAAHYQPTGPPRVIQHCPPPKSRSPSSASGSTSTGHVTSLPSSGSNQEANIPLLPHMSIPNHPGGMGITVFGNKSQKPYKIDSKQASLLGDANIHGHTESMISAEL
- assay-details: flow cytometry, A549 cells
Exercise: for every item that follows, state its recorded EC50.
Give bare numbers, in nM.

// worked examples, EC50 included
binder: 19F6-Hu13 (antibody, human IgG1, kappa, V domains shown, humanized, human IgG1 / kappa) VH: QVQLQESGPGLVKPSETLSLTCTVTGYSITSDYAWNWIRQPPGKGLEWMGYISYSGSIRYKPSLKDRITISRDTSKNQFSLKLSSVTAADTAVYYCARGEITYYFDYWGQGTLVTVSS VL: DIQMTQSPSSLSASVGDRVTITCRASTDIDDDMNWYQQKPGKAPKLLIYEGNTLQSGVPSRFSGSGYGTDFTLTISSLQPEDFATYYCLQSNDLPLTFGQGTKLEIKR
readout-units: nM
EC50: 0.47
--
binder: 38F8-Hu38 (antibody, human IgG1, kappa, V domains shown, humanized, human IgG1 / kappa) VH: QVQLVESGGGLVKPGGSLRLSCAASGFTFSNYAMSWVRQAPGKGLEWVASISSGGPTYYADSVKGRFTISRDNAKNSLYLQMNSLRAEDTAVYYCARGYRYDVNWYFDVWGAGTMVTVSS VL: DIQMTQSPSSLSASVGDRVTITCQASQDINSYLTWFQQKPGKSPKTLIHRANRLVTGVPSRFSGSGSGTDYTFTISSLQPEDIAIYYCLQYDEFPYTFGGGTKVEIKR
readout-units: nM
EC50: 0.38

Enquiry: // fetch EC50 given entry 3D8-HuC24 (antibody, human IgG1, kappa, V domains shown, humanized, human IgG1 / kappa) VH: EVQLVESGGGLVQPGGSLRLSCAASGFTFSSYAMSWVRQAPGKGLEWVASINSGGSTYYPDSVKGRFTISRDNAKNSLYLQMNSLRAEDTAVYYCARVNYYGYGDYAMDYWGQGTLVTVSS VL: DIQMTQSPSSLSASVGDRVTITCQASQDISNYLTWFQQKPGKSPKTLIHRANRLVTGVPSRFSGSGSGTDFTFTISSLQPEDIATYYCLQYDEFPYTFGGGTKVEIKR
Return: 0.29
